Experimental target: Brd4 BD2 (Homo sapiens (Human))
Experiment summary: HTRF evaluation of bromodomain inhibitors, Brd4 BD2
Type: binding
Condition description: HTRF, H4ac4 peptide 600 nM, 24 h at 4° C.
Give IC50 for every item shown.
One number for each entry, in nM.

# count of solved cases: 3
INSERT INTO assay_data (compound, observed_measurement) VALUES
  ('CC[C@H]1[C@@H](C)[C@H](n2cc(-c3ccccc3)nn2)c2cc(C(=O)OC)ccc2N1C(C)=O [Compound 28]', 567),
  ('CC[C@H]1[C@@H](C)[C@H](N=[N+]=[N-])c2cc(C(F)(F)F)ccc2N1C(C)=O [YB]', 7570),
  ('C=CCCCC(=O)Nc1ccc(-c2ccc3c(c2)[C@@H](N=[N+]=[N-])[C@H](C)[C@H](CC)N3C(C)=O)cc1 [XC]', 2230);

Please examine the following record next.
Query (compound): CC[C@H]1[C@@H](C)[C@H](n2cc(COCCOCCOCCOCCOCCOCC#Cc3cccc4c3CN(C3CCC(=O)NC3=O)C4=O)nn2)c2cc(C(=O)OC)ccc2N1C(C)=O (stereo partly drawn) [YG] ; field requested: IC50
1360

// data source = patent US20240287025A1
